// data source = ChEMBL document CHEMBL1828523

- target of assay: Nucleic Acid
- experiment: Binding affinity to Bacillus subtilis antiterminator AM1A RNA model after 130 mins by FRET assay
- Format: nucleic-acid assay
Entries and their measured Kd follow.
property: Kd

> print(dat)
                                   compound  endpoint.value
1  CC(=O)c1ccc(NC(=O)OC[C@H]2OC(=O)N[C@H]2CN2CCN(c3ccccc3)CC2)cc1 (racemic)         1800 nM
2  CC(=O)c1ccc(NC(=O)OC[C@H]2OC(=O)N[C@@H]2CN2CCN(c3ccccc3)CC2)cc1         3000 nM
3  O=C(Cc1ccccc1)OC[C@@H]1OC(=O)N[C@H]1CN1CCN(c2ccccc2)CC1        16000 nM
4  O=C(Cc1ccccc1)OC[C@H]1OC(=O)N[C@H]1CN1CCN(c2ccccc2)CC1 (racemic)     > 100000 nM
